assay: Cellular viability qHTS for adrenocortical cancer (ACC) cell line NCI-H295R (AID 1963990); settings: CellTiter-Glo ATP luminescence, 48 h; series mostly up to 46.1 µM; further: nearly all actives have a fitted effect of over 60% in size
Inconclusive results are not listed. Calls of active or inactive are those of the source. The call rests on the fitted dose curve; in most records, active means well fitted cell-killing curve with a large enough effect; inconclusive means small, poorly fitted or top-dose-only effect; inactive means flat fitted curve, though single readings scatter.
Parameter call: string, one of active, inactive

MOLECULE	CAT
Cc1cc2c(F)c(Oc3ncnn4cc(OC[C@@H](C)O)c(C)c34)ccc2[nH]1	inactive
O=C(c1ccccc1)C(O)c1ccccc1 (stereo not given)	inactive
COc1cc2c(cc1OC(C)C)[C@H](c1ccc(Cl)cc1)N(c1ccc(N(C)CC3CCC(N4CCN(C)C(=O)C4)CC3)cc1)C(=O)C2 (stereo not given in full)	active
Oc1c(Cl)cc(Cl)cc1Sc1cc(Cl)cc(Cl)c1O	active
Cc1ccc(C(N)=O)cc1Nc1nccc(-c2cn(C(C)C)c3cnccc23)n1	active

query: Which outcome was assigned to CC#CCn1c(N2CCC[C@@H](N)C2)nc2c1c(=O)n(Cc1nc(C)c3ccccc3n1)c(=O)n2C in this test?
result: inactive

query: Field: outcome | Entry: COc1ccc(-c2c(C)nn3c(NCCN4CCOCC4)cc(C)nc23)cc1OC
result: inactive

query: What call does the record list for Cc1ccc(O)c(-n2nc3ccccc3n2)c1 ?
result: inactive

query: Hi, do you know how O=[N+]([O-])c1ccc(-c2nc(-c3ccc(F)cc3)c(-c3ccncc3)[nH]2)cc1 came out in this test?
result: inactive

query: Hi, do you know how C(=C\c1ccccc1)/CN1CCN(C(c2ccccc2)c2ccccc2)CC1 came out in this test?
result: inactive

---

assay: Viability qHTS for spleen associated tyrosine kinase inhibitor (SYKi) drug resistant MV4-11 cells (AID 1963824); conditions: SYKi-resistant MV4-11 viability, CellTiter-Glo, 72 h; series mostly up to 45 µM; further: nearly all actives have a fitted effect of over 35% in size
Inconclusive results are not listed. Active and inactive are the calls of the source. Calls follow the shape of the dose curve; as a rule, active = well fitted cell-killing curve with a large enough effect; inconclusive = small, poorly fitted or top-dose-only effect, or effect the other way; inactive = no such curve, though single readings can be large or run the other way.
# output must be one of t (active), f (inactive)

Check out these entries, answers already filled in.
MOLECULE	CAT
CCCCCOc1ccccc1/C(=C\SC)n1ccnc1	t
CCc1ccc(N(CC(C)C)S(=O)(=O)c2ccc(OCC3CCOCC3)c(CO)c2)cc1	t
C=C1C(=O)OC[C@@H]1C/C=C(\C)CC1CC(C)C(=O)O1 (stereo partly drawn)	t
C=C[C@H]1CN2CC[C@H]1C[C@@H]2[C@@H](O)c1ccnc2ccc(OC)cc12	f

query: Can you look up the reported call for Cc1cccc(C)c1NC(=O)c1ccc(N)cc1 for me?
result: f

query: Would you mind telling me which call this test gave COc1cc(CCCO)ccc1O[C@@H]1O[C@H](CO)[C@@H](O)[C@H](O)[C@H]1O ?
result: f

query: Status in this test for CCCCCOC(=O)Nc1nc(=O)n([C@@H]2O[C@H](C)[C@@H](O)[C@H]2O)cc1F ?
result: f

query: Test call for this molecule, please: N#Cc1cc([N+](=O)[O-])c2sc(C(N)=O)[n+]([O-])c2c1
result: t

query: Test call for this molecule, please: CC(C)(C)c1ccc(CN2CCN(C(c3ccccc3)c3ccc(Cl)cc3)CC2)cc1 (stereo not drawn)
result: t

query: State the result this test recorded for CNC(=O)c1cnn(-c2nc(N)c3ncn([C@@H]4O[C@H](CO)[C@@H](O)[C@H]4O)c3n2)c1 .
result: f

query: # lookup: test call for COc1ccc2c(c1)CN(C(=O)CCN1CCC(Cc3ccccc3)CC1)CCS2
result: t

query: Dear colleague, could you share the recorded outcome for CCCSc1nc(N[C@@H]2C[C@H]2c2ccc(F)c(F)c2)c2nnn([C@@H]3C[C@H](OCCO)[C@@H](O)[C@H]3O)c2n1 when you have a moment?
result: t

query: Please indicate how the test categorized Cc1noc(-c2ccc(-c3ccc(CC(=O)O)cc3)cc2)c1NC(=O)O[C@H](C)c1ccccc1Cl .
result: t

---

test: Cellular viability qHTS for adrenocortical cancer (ACC) cell line SW-13 (AID 1963989); conditions: SW-13 ACC cells viability, CellTiter-Glo, 48 h; stronger effect = lower value;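 further: cells grown in serum-free medium with ITS supplement; on the % scale 0 is the no-effect control and ±100 the full control effect; nearly all actives have a fitted effect of over 65% in size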
Records with an inconclusive call do not appear.
Quick reference for activity (max response) among some compounds
The response must be a number in % with no trailing unit.

COMPOUND	ENDPOINT UNIT	activity (max response)
O=C(O)CCCCCC(=O)NN=C1CCCC1	%	2.29
CS(=O)(=O)c1ccc(-c2nnc(/C=C/c3nnc(-c4ccc(C#N)cc4)o3)n2-c2ccccc2Cl)nc1	%	-6.81
CCn1c(-c2nonc2N)nc2cncc(CNC3CCNCC3)c21	%	-7.16
O=C(O)CCc1ccc(NCc2cccc(Oc3ccccc3)c2)cc1	%	-8.89
CCCC(=O)Nc1ccc(OCC(O)CNC(C)C)c(C(C)=O)c1 (stereo not drawn)	%	0.0374
CCCCC(CC)COC(=O)c1ccccc1C(=O)O (stereo not drawn)	%	6.28
CC(=O)Oc1ccc(C(=C2CCCCC2)c2ccc(OC(C)=O)cc2)cc1	%	-5.44

Could you now look at the following compound, please?
query: Entry COc1ccc2cc(OCC3(C(=O)O)CN(C(=O)c4ccc(F)cc4)C3)ccc2c1 needs its activity (max response) filled in; supply it.
result: -4.74

---

assay: Quantitative highthroughput screen to assess conditional lethalithy of NOMO1 cells grown in RPMI1640 with untreated serum (RPMI+s) (AID 1963876); conditions: NOMO1 AML cells in RPMI+serum, CellTiter-Glo viability, 48 h; series mostly up to 45.8 µM; further: nearly all actives have a fitted effect of over 35% in size;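 on viability: 100% = DMSO wells and 0% = empty wells without cells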
Results filed as inconclusive are left out. Calls of active or inactive are those of the source. Calls follow the shape of the dose curve; as a rule, active = well fitted cell-killing curve with a large enough effect; inconclusive = small, poorly fitted or top-dose-only effect; inactive = flat fitted curve, though single readings scatter.
Pick one: active, inactive

Solved cases below.
COMPOUND	CAT
CCCc1cc(=O)[nH]c(=S)[nH]1	active
CO[C@H]1C[C@@H]2CC[C@@H](C)[C@@](O)(O2)C(=O)C(=O)N2CCCC[C@@H]2C(=O)O[C@H]([C@H](C)C[C@@H]2CC[C@H](OP(C)(C)=O)[C@H](OC)C2)CC(=O)[C@H](C)C=C(C)[C@@H](O)[C@@H](OC)C(=O)[C@H](C)C[C@H](C)C=CC=CC=C1C	inactive
CC(=O)O[C@H]1C[C@@H]2CC[C@H]3[C@H]4C[C@H]([N+]5(C)CCCCC5)[C@@H](OC(C)=O)[C@@]4(C)CC[C@@H]3[C@@]2(C)C[C@H]1[N+]1(C)CCCCC1	inactive
O=C(O)c1c(Cl)c(Cl)c(Cl)c(Cl)c1-c1c2cc(I)c(=O)c(I)c-2oc2c(I)c(O)c(I)cc12	active
O=c1cc(N2CCOCC2)oc2c(-c3cccc4c3sc3ccccc34)cccc12	inactive

query: Outcome? CCC(=O)N[C@H]1CC[C@H](C(=O)N(C)c2ccc(-c3nc4ccccc4o3)cc2)C1
result: inactive

query: Given Nc1ccc(S(=O)(=O)Nc2ccnn2-c2ccccc2)cc1 , state the outcome it received in this test.
result: inactive

query: Test call, this compound: CNC(=O)c1ccc2cc(C3(O)CCn4cncc43)ccc2c1 (centres undefined)
result: inactive

query: // outcome(item) with item = CC(C)(C)Cn1c(N)nc2ccc(-c3[nH]c(C(C)(C)C)nc3-c3ccc(F)cc3)nc21
result: inactive

---

Quick list: Potency per entry.
test: Viability qHTS for spleen associated tyrosine kinase inhibitor (SYKi) drug resistant MV4-11 cells (AID 1963824); conditions: SYKi-resistant MV4-11 viability, CellTiter-Glo, 72 h; series mostly up to 45 µM; further: nearly all actives have a fitted effect of over 35% in size; further: potency means the concentration at half of the fitted maximal effect
Results filed as inconclusive are left out. Active and inactive are the calls of the source. Calls follow the shape of the dose curve; as a rule, active = well fitted cell-killing curve with a large enough effect; inconclusive = small, poorly fitted or top-dose-only effect, or effect the other way; inactive = no such curve, though single readings can be large or run the other way.

Would you please look over these solved cases?
SMI	RESULT
COc1cc(C(C)C)c(Oc2cnc(N)nc2N)cc1I	10.3 µM (active)
CC[C@@]1(O)C(=O)OCc2c1cc1n(c2=O)Cc2cc3cc(O)ccc3nc2-1	0.0186 µM (active)

Next:
query: In one line, give reported Potency of the entry O=C1C[C@@H](c2ccc(O)cc2)Oc2cc(O)ccc21 .
result: 14.6 µM (active)

---

Test: Cellular viability qHTS for adrenocortical cancer (ACC) cell line NCI-H295R (AID 1963990); further: nearly all actives have a fitted effect of over 60% in size; further: potency means the concentration at half of the fitted maximal effect
Details: CellTiter-Glo ATP luminescence, 48 h; series mostly up to 46.1 µM
Source text: PI: Naris Nilubol, MD Surgical Oncology Program, National Cancer Institute (NCI) National Institute of Health (NIH), Bethesda, Maryland Adrenocortical cancer (ACC) is a rare malignancy with poor survival outcomes and few treatment options. Currently, mitotane is the only FDA-approved therapy for ACC. […] Through a quantitative high-throughput drug screen (qHTS), we identified auranofin (AF), a thioredoxin reductase (TXNRD) inhibitor, as a promising candidate drug. […]
Records with an inconclusive call do not appear. Calls of active or inactive are those of the source. Calls follow the shape of the dose curve; as a rule, active = well fitted cell-killing curve with a large enough effect; inconclusive = small, poorly fitted or top-dose-only effect; inactive = flat fitted curve, though single readings scatter.
REPORTED PROPERTY: Potency

COMPOUND	RESULT
COc1ccccc1-c1cccc(-c2c(O)c3cc(C#N)c(Cl)cc3[nH]c2=O)c1	inactive
CC(C)CCCC(C)CCCC(C)CCCCC(C)CCCC(C)CCCC(C)C (centres undefined)	inactive
C=CC(=O)N1CCC[C@H](n2c(=O)n(-c3ccc(Oc4ccccc4)cc3)c3c(N)ncnc32)C1	8.91 µM (active)
CCCCOc1nc(N)c2c(n1)N(Cc1cccc(CN3CCCC3)c1)CC(=O)N2	inactive
